In this section, each of the compounds is paired with its reported activation.
molecular target: Galanin receptor type 2 (Homo sapiens) (UniProt O43603); test: GALR2 receptor agonists, primary screen, cell-based (AID 803); details: GALR2-expressing cells, agonist activation read-out; at 5.6 µM; active compounds read high;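 note: 0% = vehicle buffer wells and 100% = reference agonist at full effect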
Sequence (O43603 whole entry, looked up): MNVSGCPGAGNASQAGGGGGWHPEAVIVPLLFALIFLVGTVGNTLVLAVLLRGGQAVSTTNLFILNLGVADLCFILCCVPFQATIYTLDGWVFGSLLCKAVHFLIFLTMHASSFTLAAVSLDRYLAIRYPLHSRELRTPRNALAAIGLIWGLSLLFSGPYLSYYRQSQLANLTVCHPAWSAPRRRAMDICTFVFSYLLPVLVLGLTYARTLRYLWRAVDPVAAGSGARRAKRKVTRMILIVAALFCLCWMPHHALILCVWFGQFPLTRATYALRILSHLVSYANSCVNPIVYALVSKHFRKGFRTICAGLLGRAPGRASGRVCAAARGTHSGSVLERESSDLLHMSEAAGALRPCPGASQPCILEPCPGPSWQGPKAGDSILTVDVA
In all, about 140,000 compounds went through this assay and about 680 (0.49%) were called active. For the sample, actives were picked, then their nearest neighbours and some compounds at random.
Experimental readout: activation (%)

- CCc1nnc(NS(=O)(=O)c2ccc(N=Cc3c(C)[nH]n(-c4ccc(C)cc4)c3=O)cc2)s1: -3.95
- COc1cc(NC(=S)NCCSc2ccc(C)cc2)cc(OC)c1: -1.5
- Cc1cc[n+](-c2[nH]c(=O)sc2/C=N/NC(=O)c2ccccc2[O-])cc1C: 1.06
- CCN(CC)c1nc(-c2ccccc2)cc(C(F)(F)F)c1C#N: 14.6
- COc1ccc(Nc2nc(N)nc(CSC(=S)N3CCC(C)CC3)n2)cc1: 0.01
- O=C(NN1C(=O)C2C3C=CC(C3)C2C1=O)c1ccco1 (stereo not given): -0.17
- COc1ccccc1C1CC(=O)n2c(nc(-c3ccccc3)c2-c2ccccc2)S1 (stereo not given): -1.18
- COc1cc(NS(=O)(=O)c2ccc(N=Cc3c(C)[nH]n(-c4ccccc4)c3=O)cc2)nc(OC)n1: -4.11
- CCCCCOc1ccc(CSC2=NCCN2)cc1[N+](=O)[O-]: 0.31
- CC(=O)c1ccc(NC(=O)Nc2ccc([N+](=O)[O-])cc2C)cc1: -1.71

----------
target: Galanin receptor type 2 (Homo sapiens) (UniProt O43603); assay: GALR2 receptor agonists, primary screen, cell-based (AID 803); details: GALR2-expressing cells, agonist activation read-out; at 5.6 µM; active compounds read high;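 note: 0% = vehicle buffer wells and 100% = reference agonist at full effect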
In all, about 140,000 compounds went through this assay and about 680 (0.49%) were called active. What follows is part of a selection rich in actives, with near analogues and random picks from the rest.
Experimental readout: activation (%)

* COc1cc(NC(=O)c2cc([N+](=O)[O-])ccc2Br)ccc1NC(=O)c1ccco1 | -2.01
* CC(C)(C)OC(=O)c1c(N)n(CCCN2CCCC2=O)c2nc3ccccc3nc12 | 3.75
* CC(C)(C)c1ccc(C(=O)NCCn2c(N)c(C#N)c3nc4ccccc4nc32)cc1 | 6.59
* Cc1ccccc1C(CC(=O)c1cccs1)C(C#N)C#N (stereo not given) | -0.23
* O=S(=O)(O)c1nc2ccccc2n1Cc1ccc(Cl)cc1 | -2.3

----------
molecular target: Galanin receptor type 2 (Homo sapiens) (UniProt O43603); assay: GALR2 receptor agonists, primary screen, cell-based (AID 803); conditions: GALR2-expressing cells, agonist activation read-out; at 5.6 µM; active compounds read high;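 note: 0% = vehicle buffer wells and 100% = reference agonist at full effect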
In all, about 140,000 compounds went through this assay and about 680 (0.49%) were called active. The entries come from a sample that favours actives as a whole.
// values below are reported activation
Experimental readout: activation (%)

- CCOC(=O)Cc1csc(NC(NC(=O)OCC)(C(F)(F)F)C(F)(F)F)n1: -2.02
- Cc1cc(F)ccc1S(=O)(=O)N1CCCOC1CNC(=O)C(=O)NCCC1=CCCCC1 (stereo not given): -0.65
- Cc1ccc(-c2cc(C(=O)NCc3cn(C)nc3C)c3cc(Br)ccc3n2)cc1: 5.13
- O=C(Nc1ccccc1)/C(=C/c1ccc([N+](=O)[O-])cc1)NC(=O)c1ccccc1: 5.48
- O=C(NC(=S)Nc1ccc(NC(=O)c2cccs2)cc1)c1ccc([N+](=O)[O-])cc1: 13.8
- COCCNC(=S)N/N=C/c1c(C)[nH]c2ccccc12: -0.61
- CCOC(=O)Cc1csc(NC(=O)C(C)(C)C)n1: 6.79
- O=C(N/N=C/c1ccc(O)cc1)/C(=C/c1ccc([N+](=O)[O-])cc1)NC(=O)c1ccccc1: -1.29
- COc1ccc(Cl)cc1C(=O)NCc1cn(C)nc1C: -0.07
- CCOC(=O)Cc1csc(NC(=O)Nc2ccccc2)n1: -2.31

----------
molecular target: Galanin receptor type 2 (Homo sapiens); experiment: GALR2 receptor agonists, primary screen, cell-based (AID 803); details: GALR2-expressing cells, agonist activation read-out; at 5.6 µM; active compounds read high;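 note: 0% = vehicle buffer wells and 100% = reference agonist at full effect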
Hit rate of the full screen: of about 140,000 compounds, about 680 (0.49%) were called active. What follows is part of a selection rich in actives, with near analogues and random picks from the rest.
Reported activation is given for each of the following compounds.
Experimental readout: activation (%)

- CCOc1ccc2nc(Nc3nc4ccc(NC(C)=O)cc4s3)sc2c1: 35.2
- C=CCN(CC=C)S(=O)(=O)c1ccc(C(=O)Nc2sc3c(c2C(N)=O)CCCCC3)cc1: -0.72
- C=CCN(CC=C)S(=O)(=O)c1ccc(C(=O)Nc2nc3c(s2)CCc2ccccc2-3)cc1: 9.18
- Cc1cccc2cc(CN(Cc3cccs3)C(c3nnnn3C3CCCC3)C(C)C)c(=O)[nH]c12 (stereo not drawn): -1.34
- COc1ccc(C(=O)n2nc(-c3ccc(C)cc3)nc2N)cc1OC: -1.18
- N#Cc1c(NC(=O)c2ccc(N3CCOCC3)c([N+](=O)[O-])c2)sc2c1CCCC2: -1.06
- COc1ccc2nc(Nc3nc4ccc(NC(C)=O)cc4s3)sc2c1: 2.62
- COC(=O)c1ccc(NC(=O)C(C)N2C(=O)c3ccccc3C2=O)cc1 (stereo not drawn): 8.37
- CC1(C)CC(=O)C=C(NCCCNC2CCCCC2)C1: -0.48
- CCC(CC)C(=O)N1CCN(c2cccc(C)c2C)CC1: -1.21
- CCc1cc(C(=O)OC)c(NC(=O)CC2Sc3ccc(C(F)(F)F)cc3NC2=O)s1 (stereo not drawn): 1.46
- CCc1ccc(-c2cc(C(=O)NN3CCN(C)CC3)c3ccccc3n2)cc1: 0.42
- Cc1ccc(C(=O)Nc2ccc(C)c(S(=O)(=O)N(C)C)c2)s1: 0.14
- CC1(C)CC(=O)C=C(NCCN2CCNCC2)C1: 33.1
- COc1cc2c(cc1/C=C1/NC(=O)N(c3ccccc3)C1=O)OCO2: 1.22
- CCOc1ccc(NC(=O)COc2ccc(C(=O)NC3CCCc4ccccc43)cc2OC)cc1 (stereo not drawn): -0.21
- CCN(CC)c1ccc(S(=O)(=O)N2CCOCC2)cc1NC(=O)CSc1cccc[n+]1[O-]: -0.35
- COc1ccccc1C1SCCN1C(=O)c1ccc([N+](=O)[O-])cc1 (stereo not drawn): 0.57
- Cc1ccc2sc(NNC(=O)c3ccc4c(c3)OCCO4)nc2c1C: -2.21
- O=C(COC(=O)CCCNC(=O)c1ccc(Cl)cc1)Nc1cc(Cl)ccc1Cl: -0.66
- CC1(C)CC(=O)C=C(NCCCN2CCCC2=O)C1: -3.74
- Cc1cccc2cc(CN(Cc3ccc4c(c3)OCO4)Cc3nnnn3C3CCCC3)c(=O)[nH]c12: 5.7
- COc1ccc(C(=O)Nc2ncc3c(n2)-c2ccccc2CC3)cc1: -1.58
- CCC(=O)Nc1c(S(=O)(=O)c2ccccc2)c2nc3ccccc3nc2n1Cc1ccccc1: 2.15
- CCN(/N=C/c1ccc(N(C)C)cc1)c1nc2ccccc2[nH]1: -1.85
- COc1cccc(/C=N/NC(=O)CNC(=O)c2ccc(S(=O)(=O)N3CCOCC3)cc2)c1OC: -1.42
- CCNc1nc(NC(C)C)nc(N2CC(=O)N(CC(=O)OCC)C2=N)n1: 0.96
- O=C(CCc1ccc(S(=O)(=O)N2CCOCC2)cc1)NN=C1CCCCCCC1: -0.53
- O=S(=O)(c1ccc(F)cc1)N1CCN(C(=S)NC2CCCC2)CC1: -1.23
- Cn1c(=O)c2c(nc(N3CCCCCC3)n2CC(=O)c2ccc(Br)cc2)n(C)c1=O: -0.03
- CNC(=S)NNC(=O)c1sccc1OCc1ccccc1: -1.56
- O=C(Nc1ccc(S(=O)(=O)N2CCc3ccccc3C2)cc1)c1ccccc1: -2.86
- Cc1ccc(-c2cn3cc([N+](=O)[O-])ccc3n2)cc1: -1.19
- O=C(CSc1ncnc2scc(-c3ccccc3)c12)NCc1ccc2c(c1)OCO2: -1.28
- O=C(Nc1ccccc1F)c1ccccc1-c1ccc(C(F)(F)F)cc1: -0.53
- CC1Cc2ccccc2N1C(=O)CSc1nnc(-c2ccc(S(=O)(=O)N3CCCC3)cc2)n1C (stereo not drawn): -1.17
- O=C1N/C(=C/c2cccn2-c2ccccc2)C(=O)N1c1cccc(Cl)c1: 6.96
- N=C(N)SCc1cccc2ccccc12: -1.3
- COC(=O)c1ccc(NC(=O)Nc2ccc(C)cc2)cc1: -1.78
- CCOc1ccccc1N(CC(=O)Nc1ccccc1C(=O)OC)S(C)(=O)=O: -0.26
- COc1ccccc1N1N=C(c2cccs2)CC1c1ccccc1 (stereo not drawn): 13.1
- COc1ccc(C(=O)Cn2nnc(-c3ccc(N4CCOCC4)cc3)n2)cc1OC: -0.59
- CCC(c1nnnn1C1CCCC1)N(Cc1cccs1)Cc1cc2cccc(C)c2[nH]c1=O (stereo not drawn): -1.09
